B1: library; numbered along this chain (parent)
chain: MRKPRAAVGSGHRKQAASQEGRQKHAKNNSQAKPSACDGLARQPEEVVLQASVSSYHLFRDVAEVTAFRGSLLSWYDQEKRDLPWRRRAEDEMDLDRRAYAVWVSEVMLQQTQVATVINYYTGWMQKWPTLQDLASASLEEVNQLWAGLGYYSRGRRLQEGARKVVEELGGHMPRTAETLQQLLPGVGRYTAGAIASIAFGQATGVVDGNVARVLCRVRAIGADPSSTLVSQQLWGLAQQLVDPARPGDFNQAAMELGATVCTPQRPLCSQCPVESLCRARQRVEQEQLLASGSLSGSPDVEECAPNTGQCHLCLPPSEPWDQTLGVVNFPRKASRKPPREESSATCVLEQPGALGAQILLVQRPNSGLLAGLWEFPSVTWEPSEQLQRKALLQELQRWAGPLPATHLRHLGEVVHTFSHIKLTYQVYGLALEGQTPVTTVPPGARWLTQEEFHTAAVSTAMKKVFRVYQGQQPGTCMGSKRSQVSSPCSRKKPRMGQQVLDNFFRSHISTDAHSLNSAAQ

# Variants of: B1
# Assay Procedure: 8OG:A repair function score (normalized; synonymous = 0, nonsense = -1) (normalized log-likelihood score); higher = more repair activity (WT-like);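 further: cells sorted at 72 h after reporter transfection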
# Experimental Context: with 8OG:A DNA repair reporter (GFP) in HEK-293 MUTYH KO cells
Experimental Endpoint: 8OG:A repair function score

>>> reported_measurement("N210S")
-1.03
>>> reported_measurement("P437K")
-0.15
>>> reported_measurement("T122A")
-0.000881
>>> reported_measurement("L315Q")
-0.193
>>> reported_measurement("L360F")
-0.195
>>> reported_measurement("R156V")
-0.117
>>> reported_measurement("R69Q")
-0.519
>>> reported_measurement("R495L")
0.017
>>> reported_measurement("S419Y")
-0.503
>>> reported_measurement("T440M")
-0.109
>>> reported_measurement("Q78H")
-0.0658
